Measured property: melting point

Examples with their reported melting point follow.
Mol	Readout value
O=C(COc1ccc(F)cc1)NCC(=O)Nc1c(F)cccc1F	194 to 195 °C
O=C(COc1ccc(Br)cc1)NCC(=O)Nc1cccc([N+](=O)[O-])c1	197 to 198 °C
O=C(Cc1cccs1)NNC(=S)NC(=O)Cc1ccccc1	161 to 162 °C
Cc1cccc(OCC(=O)NCC(=O)Nc2ccc(I)cc2)c1	192 to 193 °C
O=C(COc1ccc(F)cc1)NCC(=O)Nc1ccc(F)cc1	202 to 203 °C

// switching to the query compound
Q) Sample O=C(COc1ccc(F)cc1)NCC(=O)NC1CCCCC1 — what was its melting point?
A) 184 to 185 °C

###

Measured melting point accompanies every entry in the list below.

Q) Sample Cc1cccc(CC(=O)NNC(=S)NC(=O)/C=C/c2cc(Br)cc(Br)c2)c1 — what was its melting point?
A) 203 to 204 °C

###

Measured melting point accompanies every entry in the list below.

Q) Sample O=C(COc1ccc(F)cc1)NCC(=O)Nc1ccc(I)cc1 [MM-7] — what was its melting point?
A) 190 to 191 °C

Q) Try this compound too: O=C(/C=C/c1ccc([N+](=O)[O-])cc1)NC(=S)NNC(=O)Cc1cccs1 [LW-3]
A) 222 to 223 °C

###

Measured melting point accompanies every entry in the list below.

Examples with their reported melting point follow.
Mol	melting point
O=C(COc1ccc(O)cc1)NCC(=O)Nc1c(F)cccc1F	197 to 198 °C
O=C(CNC(=O)COc1ccc(Br)cc1)NCc1ccc(Br)cc1F	179 to 180 °C
O=C(Cc1c(F)cccc1F)NNC(=S)NC(=O)Cc1ccccc1	174 to 175 °C

// switching to the query molecule
Q) Sample O=C(CNS(=O)(=O)Cc1ccccc1)Nc1cccc(Br)c1 — what was its melting point?
A) 215 to 216 °C

###

Measured property: melting point

Compound	melting point
CC(NC(=O)CNS(=O)(=O)Cc1ccccc1)c1ccccc1 (stereo not drawn) [DR-3]	147 to 148 °C

Q) Sample Cc1cccc(OCC(=O)NCC(=O)Nc2ccc(O)cc2)c1 [MM-37] — what was its melting point?
A) 186 to 187 °C

Q) Try this compound too: O=C(/C=C/c1cc(Br)cc(Br)c1)NC(=S)NNC(=O)Cc1ccc(F)cc1 [LW-21]
A) 195 to 196 °C

Q) Try this compound too: O=C(/C=C/c1cc(Br)cc(Br)c1)NC(=S)NNC(=O)c1ccccc1 [LW-23]
A) 224 to 225 °C

###

Measured property: melting point

Examples with their reported melting point follow.
Mol	melting point
O=C(COc1ccc(OCc2ccccc2)cc1)NCC(=O)Nc1c(F)cccc1F	145 to 146 °C
O=C(Cc1ccc(F)cc1)NNC(=S)NC(=O)Cc1ccc(F)cc1	178 to 179 °C

Q) Sample O=C(Cc1cc(F)cc(F)c1)NNC(=S)NC(=O)Cc1ccccc1 — what was its melting point?
A) 178 to 179 °C

Q) Try this compound too: O=C(/C=C/c1c(F)cc(F)cc1F)NC(=S)NNC(=O)Cc1cccs1
A) 207 to 208 °C

###

Measured property: melting point

Examples with their reported melting point follow.
Mol	melting point
O=C(COc1ccc(Cl)cc1)NCC(=O)Nc1c(F)cccc1F	184 to 185 °C
COc1ccc(NC(=O)CNC(=O)COc2ccc(F)cc2)cc1	185 to 186 °C
O=C(CNS(=O)(=O)Cc1ccccc1)Nc1c(F)cccc1F	141 to 142 °C
COc1ccc(OCC(=O)NCC(=O)Nc2ccc(OC)cc2C)cc1	143 to 144 °C

Q) Sample COc1cccc(OC)c1/C=C/C(=O)NC(=S)NNC(=O)Cc1cccs1 — what was its melting point?
A) 220 to 221 °C

Q) Try this compound too: Cc1cccc(CC(=O)NNC(=S)NC(=O)Cc2ccccc2)c1
A) 149 to 150 °C

Q) Try this compound too: O=C(Cc1ccc(F)cc1)NNC(=S)NC(=O)Cc1ccccc1
A) 182 to 183 °C

Q) Try this compound too: O=C(/C=C/c1cc(Br)cc(Br)c1)NC(=S)NNC(=O)Cc1cccs1
A) 212 to 213 °C
